- assay protocol: NCI Yeast Anticancer Drug Screen. Data for the sgs1 mgt1 strain (AID 161);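 note: 0% = growth of cultures given vehicle only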
- recorded conditions: S. cerevisiae sgs1 mgt1 strain, at 50.0 µM, hits give high values
About 79,000 compounds went through this panel and 15% of them were active in at least one assay; those are over-represented in the sample as a whole.

[
  {
    "molecule": "CCO/C=N/n1c(C(=O)NCCCOC)nc2ccccc2c1=O",
    "growth inhibition / %": 7.4
  },
  {
    "molecule": "COC(=O)c1nc2nnc(N)n2c(-c2ccc(Cl)cc2)c1C",
    "growth inhibition / %": 7.25
  },
  {
    "molecule": "CC1CC(=O)N2CCCNC2=C1C#N (stereo not given)",
    "growth inhibition / %": 12.8
  },
  {
    "molecule": "COc1nc(NC2OCC(OC(C)=O)C(OC(C)=O)C2OC(C)=O)c(-c2csc(N)n2)c(=O)n1C (stereo not given)",
    "growth inhibition / %": -14.6
  },
  {
    "molecule": "Cc1cc(N(CCC#N)CCC#N)ccc1/C(N=Nc1ccc([N+](=O)[O-])cc1)=N\\NC(=O)c1cc(Cl)ccc1O",
    "growth inhibition / %": -5
  },
  {
    "molecule": "CCNC(=O)C1Cc2ccccc2N(CC)C1 (stereo not given)",
    "growth inhibition / %": -0.75
  },
  {
    "molecule": "O=C(Nc1ccccc1[N+](=O)[O-])Oc1ccc(-c2ccccc2)cc1",
    "growth inhibition / %": 9.05
  },
  {
    "molecule": "C/C=C(/C)C(=O)OC12CC(C)C3(O)C(C=C(CO)C[C@]4(O)C(=O)C(C)=CC34)C1C2(C)C (stereo not given in full)",
    "growth inhibition / %": -12.6
  },
  {
    "molecule": "CC(c1ccccc1)C(O)S(=O)(=O)O (stereo not given)",
    "growth inhibition / %": 7.35
  },
  {
    "molecule": "Cc1ccc(N=C2c3cc([N+](=O)[O-])ccc3-c3ccc([N+](=O)[O-])cc32)cc1",
    "growth inhibition / %": 0.35
  }
]
